# pIC50 per record follows
System: AR 1.0 cells
Assay: Proliferation assay with and without fixed concentration of doxorubicin (sulphorhodamine B)
Type: cell-based, mouse
Conditions: cytotoxic agent 0.50 μg/ml, four days; 5760 min; read-out: TOXICITY WITH CYTOTOXIC AGENT (IC 50)
Description: Compounds of formula A were examined for their ability to potentiate the toxicity of doxorubicin in AR 1.0 cells.
pIC50: −log10 of the molar value.

>  <Compound>
Cn1c(=O)/c(=C/c2ccccc2)n(CC2OCCO2)c(=O)/c1=C/c1ccccc1

>  <pIC50>
6.15

$$$$
>  <Compound>
C=CCn1c(=O)/c(=C/c2ccccc2)n(C)c(=O)/c1=C/c1ccccc1

>  <pIC50>
5.82

$$$$
>  <Compound>
COc1ccc(/C=c2/c(=O)n(CC3CC3)/c(=C\c3ccccc3)c(=O)n2C)cc1

>  <pIC50>
6.00

$$$$
>  <Compound>
CCCCCOc1n/c(=C\c2ccccc2)c(=O)n(C)/c1=C\c1ccccc1

>  <pIC50>
6.10

$$$$
>  <Compound>
CC(=O)OCCOc1n/c(=C\c2ccccc2)c(=O)n(C)/c1=C\c1ccccc1

>  <pIC50>
6.10

$$$$
>  <Compound>
CC(=O)OCCn1c(=O)/c(=C/c2ccccc2)n(C)c(=O)/c1=C/c1ccccc1

>  <pIC50>
5.82

$$$$
